System: MDA-MB-468
Assay explanation: drug sensitivity score (DSS), CellTox Green (DSS (AUC-based score)); higher = stronger drug effect (viability inhibition or cytotoxicity); extreme values may be limits of the assay
Conditions: incubation time: 72 h
So I've got a bunch of compounds here, and I need their drug sensitivity score values.

Entry CCOc1cc2ncc(C#N)c(Nc3ccc(OCc4ccccn4)c(Cl)c3)c2cc1NC(=O)/C=C/CN(C)C : reported drug sensitivity score = ? 9.51

Entry CC(=O)O[C@H]1C(=O)[C@@]2(C)[C@H]([C@H](OC(=O)c3ccccc3)[C@]3(O)C[C@H](OC(=O)[C@H](O)[C@@H](NC(=O)c4ccccc4)c4ccccc4)C(C)=C1C3(C)C)[C@]1(OC(C)=O)CO[C@@H]1C[C@@H]2O : reported drug sensitivity score = ? 26.9

Entry FC(F)c1nc2ccccc2n1-c1nc(N2CCOCC2)nc(N2CCOCC2)n1 : reported drug sensitivity score = ? 0

###

Tested on: DU-4475
Assay explanation: normalised response (% of control), CellTiter-Glo; higher = more viable cells (100 = DMSO, 0 = benzethonium chloride kill control)
Conditions: incubation time: 72 h
Measured metric: normalised response
Don't forget the unit after the value.

Return normalised response measured with DU-4475 given this molecule: COc1c(C)cnc(Cn2cnc3c(Cl)nc(N)nc32)c1C [BIIB021] (1000 nM) 0.4%

Return normalised response measured with DU-4475 given this molecule: C#Cc1cccc(Nc2ncnc3cc(OC)c(OCCCCCCC(=O)NO)cc23)c1 [CUDC-101] (1 nM) 99.1%

Return normalised response measured with DU-4475 given this molecule: O=c1[nH]c(=O)n([C@H]2C[C@H](O)[C@@H](CO)O2)cc1F [Floxuridine] (10 nM) 98.1%

Return normalised response measured with DU-4475 given this molecule: COc1ncc(-c2ccc3nccc(-c4ccnnc4)c3c2)cc1NS(=O)(=O)c1ccc(F)cc1F (0.1 nM) 99.8%

Return normalised response measured with DU-4475 given this molecule: CN1CCN(c2ccc3nc(-c4c(N)c5c(F)cccc5[nH]c4=O)[nH]c3c2)CC1 [Dovitinib] (1000 nM) 101%

###

System: HCC1143
Assay explanation: normalised response (% of control), CellTox Green; higher = less cell death (100 = DMSO, 0 = benzethonium chloride kill control)
Conditions: incubation time: 72 h
Measured metric: normalised response (%)
Lab book: enter the figure in %, no units written.

Entry Cn1c(=O)c(F)c(Nc2ccc(I)cc2F)c2c(=O)n(C[C@@H](O)CO)cnc21 [TAK-733] (1000 nM) : reported normalised response = ? 128

Entry COC1=C2C[C@@H](C)C[C@H](OC)[C@H](O)[C@@H](C)/C=C(\C)[C@H](OC(N)=O)[C@@H](OC)/C=C\C=C(/C)C(=O)NC(=CC1=O)C2=O [Geldanamycin] (1000 nM) : reported normalised response = ? 102

Entry CCOc1cc2ncc(C#N)c(Nc3ccc(OCc4ccccn4)c(Cl)c3)c2cc1NC(=O)/C=C/CN(C)C [Neratinib] (10 nM) : reported normalised response = ? 103

Entry COc1cccc2c1C(=O)c1c(O)c3c(c(O)c1C2=O)C[C@@](O)(C(C)=O)C[C@@H]3O[C@H]1C[C@H](N)[C@H](O)[C@H](C)O1 [Daunorubicin] (1000 nM) : reported normalised response = ? 100

Entry COc1c(C)cnc(Cn2cnc3c(Cl)nc(N)nc32)c1C [BIIB021] (1000 nM) : reported normalised response = ? 90.5

Entry C[C@@H]1C=C2C(=O)O[C@@H]3CC[C@H](C1)[C@]23O [Galiellalactone] (500 nM) : reported normalised response = ? 73.3

Entry O=c1[nH]cc(F)c(=O)[nH]1 [Fluorouracil] (100 nM) : reported normalised response = ? 92.6

Entry Cn1cnc2c(F)c(Nc3ccc(Br)cc3F)c(C(=O)NOCCO)cc21 [MEK-162] (1000 nM) : reported normalised response = ? 94.5

Entry Nc1nccc(-c2c(-c3ccc(F)cc3)ncn2C2CCCCC2)n1 (1000 nM) : reported normalised response = ? 120

Entry C[C@@]1(C(=O)Nc2ccc(F)nc2)CCCN1c1nc(Nc2cc(C3CC3)n[nH]2)c2cccn2n1 (10000 nM) : reported normalised response = ? -57.9

Entry COC(=O)C[C@](O)(CCCC(C)(C)O)C(=O)O[C@@H]1C(OC)=C[C@]23CCCN2CCc2cc4c(cc2[C@H]13)OCO4 [Omacetaxine] (10000 nM) : reported normalised response = ? 74.8

Entry C[C@@H]1C=C2C(=O)O[C@@H]3CC[C@H](C1)[C@]23O [Galiellalactone] (50000 nM) : reported normalised response = ? 112

Entry CC(C)(C)c1cc(NC(=O)Nc2ccc(-c3cn4c(n3)sc3cc(OCCN5CCOCC5)ccc34)cc2)no1 [Quizartinib] (1000 nM) : reported normalised response = ? 132

Entry COc1cccc2c1C(=O)c1c(O)c3c(c(O)c1C2=O)C[C@@](O)(C(C)=O)C[C@@H]3O[C@H]1C[C@H](N)[C@H](O)[C@H](C)O1 [Daunorubicin] (10 nM) : reported normalised response = ? 104

Entry Cc1cc(C(C)Nc2ccccc2)c2nc(N3CCOCC3)cc(=O)n2c1 (stereo not given) [TGX-221] (100 nM) : reported normalised response = ? 74.4

Entry CC(C)(C)c1cc(NC(=O)Nc2ccc(-c3cn4c(n3)sc3cc(OCCN5CCOCC5)ccc34)cc2)no1 [Quizartinib] (100 nM) : reported normalised response = ? 98.3

Entry COc1ccc(C2=N[C@@H](c3ccc(Cl)cc3)[C@@H](c3ccc(Cl)cc3)N2C(=O)N2CCNC(=O)C2)c(OC(C)C)c1 [Nutlin-3] (100 nM) : reported normalised response = ? 109

Entry COc1ncc(-c2ccc3nccc(-c4ccnnc4)c3c2)cc1NS(=O)(=O)c1ccc(F)cc1F (100 nM) : reported normalised response = ? 110

Entry CS(=O)(=O)CCNCc1ccc(-c2ccc3ncnc(Nc4ccc(OCc5cccc(F)c5)c(Cl)c4)c3c2)o1 [Lapatinib] (10 nM) : reported normalised response = ? 109

Entry CC(C)(C)c1cc(NC(=O)Nc2ccc(-c3cn4c(n3)sc3cc(OCCN5CCOCC5)ccc34)cc2)no1 [Quizartinib] (10 nM) : reported normalised response = ? 125

Entry CS(=O)(=O)CCNCc1ccc(-c2ccc3ncnc(Nc4ccc(OCc5cccc(F)c5)c(Cl)c4)c3c2)o1 [Lapatinib] (1000 nM) : reported normalised response = ? 99

Entry COc1c(C)cnc(Cn2cnc3c(Cl)nc(N)nc32)c1C [BIIB021] (100 nM) : reported normalised response = ? 107

Entry CS(=O)(=O)OCCCCOS(C)(=O)=O [Busulfan] (1000 nM) : reported normalised response = ? 97.8

Entry COc1cc(Nc2ncc(F)c(Nc3ccc4c(n3)NC(=O)C(C)(C)O4)n2)cc(OC)c1OC [Tamatinib] (1000 nM) : reported normalised response = ? 119

Entry CCS(=O)(=O)c1cccc(-c2cc(C(=O)NC3CCN(C)CC3)c(C)c3[nH]c4ncc(C)cc4c23)c1 [TAK-901] (10 nM) : reported normalised response = ? 69
